ASSAYED_SYSTEM: T1, BCMA on cells (293T cells transfected with BCMA; H929, MM.1S and U266 cell lines expressing BCMA) (human, UniProt Q02223 1-184)
T1 construct: H929, MM.1S and U266 carry the native protein; also called B-cell Maturation Antigen; TNFRSF17
T1 sequence: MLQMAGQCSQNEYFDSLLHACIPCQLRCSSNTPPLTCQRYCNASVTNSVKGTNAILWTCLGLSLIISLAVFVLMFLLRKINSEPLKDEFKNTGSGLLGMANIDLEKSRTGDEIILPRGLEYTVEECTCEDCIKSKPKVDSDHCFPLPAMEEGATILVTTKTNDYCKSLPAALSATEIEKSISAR
TEST_DETAILS: flow cytometry, H929 cells
Cut-off 80% on Positive (%), inclusive. At or above means true; below means false.

Consider the following illustrative entries.
{"BINDER": "SCT-Aa12(m/m) (antibody, V domains shown, Full IgG format: mouse IgG1 heavy chain constant region, mouse kappa light chain constant region) VH: QVQLQQSDAELVKPGASVKISCKVSGYTFTDYTIHWMKQRPEQGLEWIGYIFPSDGSTKYNEKFKGKATLTADKSSSTAYMQLNSLTSDDSAVYFCARWDYEGFDYWGQGTTLTVSS VL: DIVMTQSPATLSVTPGDRVSLSCRASQSISDYLNWYQQKSHESPRLLIKYASQSISGIPSRFSGSGSGSDFTLSINSVEPEDVGVYYCQNGHSFPPTFGSGTKLEIK", "CLASS_ASSIGNMENT": "true"}
{"BINDER": "SCT-Aa14(m/m) (antibody, V domains shown, Full IgG format: mouse IgG1 heavy chain constant region, mouse kappa light chain constant region) VH: QVQLQQSDAELVKPGASVKISCKVSSYTFTDHTIHWMKQRPEQGLEWIGYIFPRDGSTKYNEKFKGKATLTADKSSSTAYMQLNSLTSEDSAVYFCARWDYEGFDYWGQGTTLTVSS VL: DIVMTQSPATLSVTPGDRVSLSCRASQNISDYLHWYQQKSHESPRLLIKYASQSISGIPSRFSGSGSGSDFTLSINSVEPEDVGVYYCQNGHSFPPTFGSGTKLEIK", "CLASS_ASSIGNMENT": "false"}
{"BINDER": "SCT-Aa01(m/m) (antibody, V domains shown, Full IgG format: mouse IgG1 heavy chain constant region, mouse kappa light chain constant region) VH: DVQLQESGPGLVKPSQSLSLTCSVTGYSITSGYYWNWIRQFPGNKLEWMGYIRYDGSNNYNPSLKNRISITRDTSKNQFFLKLNSVTTEDTATYYCAPYDYDYAMDFWGQGTSVTVSS VL: DIQMTQSPASLSASVGETVTITCRASGNIHNYLAWYQQKQGKSPQLLVYNAKTLAHGVPSRFSGSGSGTQYSLKITSLQPEDFGTYYCQHFWSTPFTFGSGTKLEIK", "CLASS_ASSIGNMENT": "true"}
{"BINDER": "SCT-Aa02(m/m) (antibody, V domains shown, Full IgG format: mouse IgG1 heavy chain constant region, mouse kappa light chain constant region) VH: EVKLLQSGGGLVQPGGSLKLSCAASGIDFSRYWMSWVRRAPGKGLEWIGEINPDSSTINSAPSLEDKFIISRDNAKNTLYLQMSKVRSEDTALYYCASLYYDYERDYAMDYWGQGASVTVSS VL: DIVMTQSQKFMSTSVGDRVSVTCKASQNVGTNVAWYQQKPGQSPKALIYSASYRFSGVPDRFTGSGSGTDFTLTISNVQSEDLAEYFCQQYHSYPFTFGGGTKLEIK", "CLASS_ASSIGNMENT": "true"}

Task item: In plain terms: is recorded Positive (%) at least 80% for SCT-Aa15(h/h) (antibody, V domains shown, Full IgG format, chimeric: human IgG1 heavy chain constant region, human kappa light chain constant region) VH: QVQLQQSDAELVKPGPSVKISCKVSGSTFTDHTVHWMKQRPEQGLEWIGYVYPRDGSTRYNEKFKGKATLTADKSSSTAYMQLNSLTSEDSAVYFCARWDYEGFDYWGQGTTLTVSS VL: DIVMTQSPATLSVTPGDRVSLSCRASQNISDYLHWYQQKSHESPRLLIKYASQSISGIPSRFSGSGSGSDFTLSINSVEPEDVGVYYCQNGHSFPPTFGSGTKLKIK ?
Reply: false
